- Test system: Mycolicibacterium smegmatis
- protocol: Antitubercular activity against Mycobacterium smegmatis ATCC 35797 after 48 hrs by agar dilution method
- Assay type: functional
- condition: ATCC 35797, 48 h
Label 1.0 when MIC is strictly below 100 µg/mL; at or above that, label 0.0.

smiles=CCN1C(=O)/C(=N\NC(=O)c2cn(CC)c3nc(C)ccc3c2=O)c2ccccc21 class_assignment=0.0
smiles=CCn1cc(C(=O)N/N=C2\C(=O)N(Cc3ccccc3)c3ccccc32)c(=O)c2ccc(C)nc21 class_assignment=1.0
smiles=CCn1cc(C(=O)N/N=C2\C(=O)N(Cc3ccccc3)c3ccc(Br)cc32)c(=O)c2ccc(C)nc21 class_assignment=1.0
smiles=CCn1cc(C(=O)N/N=C2\C(=O)Nc3ccc(Br)cc32)c(=O)c2ccc(C)nc21 class_assignment=0.0
smiles=CCn1cc(C(=O)N/N=C2\C(=O)N(C)c3ccccc32)c(=O)c2ccc(C)nc21 class_assignment=0.0
smiles=NNC(=O)c1ccncc1 class_assignment=1.0
